# Tested on: Bmi-1 protein
# protocolDescription: Sandwich ELISA Assay: Bmi-1 protein level in HT-1080 cells treated with test compounds
# Format: cell-based
EC50 reference

Use the examples below as a reference point.
compound	testResult
Nc1nc(Nc2ccc(OC(F)F)cc2)nc(-n2c(C3CC3)nc3cc(F)ccc32)n1 [Cpd 66]	0.01 to 0.1 µM
CCc1nc2ccc(F)cc2n1-c1nc(N)nc(Nc2ccc(Br)cc2)n1 [Cpd 223]	0.01 to 0.1 µM
COc1ccc(Nc2nc(N)nc(-n3c(C4CC4)nc4ccccc43)n2)cc1 [Cpd 153]	0.001 to 0.01 µM
Cc1nc2ccccc2n1-c1nnc(N)c(Nc2ccc(C(F)(F)F)cc2)n1 [Cpd 143]	0.1 to 3 µM
Cc1nc2ccc(Cl)cc2n1-c1nc(N)nc(Nc2ccc(C(F)(F)F)cc2)n1 [Cpd 75]	0.01 to 0.1 µM
Cc1nc2ccccc2n1-c1nc(N)nc(Nc2ccc(OC(F)F)cc2)n1 [Cpd 4]	0.01 to 0.1 µM
Cc1nc2c(F)cc(F)cc2n1-c1nc(N)nc(Nc2ccc(OC(F)F)c(F)c2)n1 [Cpd 48]	0.01 to 0.1 µM
CCc1nc2ccccc2n1-c1nncc(Nc2ccc(C(F)(F)F)cc2)n1 [Cpd 98]	0.01 to 0.1 µM

So what EC50 did Cc1nc2ncc(Br)cc2n1-c1nc(N)nc(Nc2ccc(C(F)(F)F)cc2)n1 [Cpd 32] get with Bmi-1 protein? 0.01 to 0.1 µM

Next record, please: FC(F)Oc1ccc(Nc2cnnc(-n3c(C4CC4)nc4ccccc43)n2)cc1 [Cpd 113] 0.01 to 0.1 µM

Next record, please: Nc1nc(Nc2ccc(OC(F)F)cc2)nc(-n2c(C3CC3)nc3cc(F)c(F)cc32)n1 [Cpd 83] 0.01 to 0.1 µM

Next record, please: CCc1nc2c(F)cc(F)cc2n1-c1nc(N)nc(Nc2ccc(C)cc2)n1 [Cpd 189] 0.01 to 0.1 µM

Next record, please: Cc1nc2cc(Cl)c(Cl)cc2n1-c1nc(N)nc(Nc2ccc(C(F)(F)F)cc2)n1 [Cpd 12] 0.1 to 3 µM

Next record, please: Cc1nc2cc(F)ccc2n1-c1nc(N)nc(Nc2ccc(OC(F)F)c(F)c2)n1 [Cpd 54] 0.1 to 3 µM
